This collection of values is drawn from patent US20030109571A1.

The compounds listed here are annotated with their pEC50.
- TESTED_TARGET: TP-receptor (vascular, TPVASC) (Rattus norvegicus, UniProt P34978)
- Construct: measured in vitro in isolated smooth muscle preparations; from tissue; host or cells: rings of isolated rat thoracic aorta
- Sequence (P34978 whole entry): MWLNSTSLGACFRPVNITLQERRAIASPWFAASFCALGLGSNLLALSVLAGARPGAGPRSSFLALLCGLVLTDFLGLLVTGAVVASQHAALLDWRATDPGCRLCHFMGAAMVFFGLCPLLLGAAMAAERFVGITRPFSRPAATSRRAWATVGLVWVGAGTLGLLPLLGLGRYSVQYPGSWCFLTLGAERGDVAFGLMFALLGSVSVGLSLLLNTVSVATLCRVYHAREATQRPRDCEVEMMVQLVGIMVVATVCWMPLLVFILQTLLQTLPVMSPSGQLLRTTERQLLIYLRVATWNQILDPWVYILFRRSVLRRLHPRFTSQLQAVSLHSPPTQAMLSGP
- TEST_NAME: TP-vasoconstrictor activity: contraction of rings of isolated rat thoracic aorta, without or with SQ29,548
- REPORTED_CONDITIONS: presence of SQ29,548 (1 uM); read-out: EC50 at TPVASC-receptor, rat aorta
Field pEC50 (float): negative decimal logarithm of the concentration in molar.

>  <COMPOUND>
CCCCCC(O)/C=C/C1C2CC(OC(=O)O2)C1C/C=C\CCCC(=O)O (centres unmarked) [Example 7]

>  <TESTED_TARGET>
TP-receptor (vascular, TPVASC) (Rattus norvegicus, UniProt P34978)

>  <METRIC>
pEC50

>  <READOUT_NUMBER>
6.49

$$$$

Switching to the query record.
State the recorded pEC50 for this entry: CCCCC[C@H](O)/C=C/[C@@H]1[C@@H](C/C=C\CCCCO)[C@@H]2C[C@H]1OC(=O)O2 [Example 4]
6.34
